system: OVCAR-8 ovarian; assay: NCI tumour cell line growth inhibition, 48 h
Quick reference for TGI among some compounds

compound	measurement-target	TGI
O=C(O)CCCc1ccc2ccc3ccccc3c2c1	OVCAR-8 ovarian	> 100 µM
CN(C)Cc1cc(C(F)(F)F)ccc1C(O)(c1ccccc1)c1ccccc1	OVCAR-8 ovarian	35.8 µM
Cc1ccc2c(ccc(/C=C/c3ccc(O)c4ncccc34)[n+]2C)c1	OVCAR-8 ovarian	24 µM
O=C(c1ccccc1)c1ccc2n[se]nc2c1	OVCAR-8 ovarian	> 100 µM
CC(C)(C)c1cc([N+](=O)[O-])cc([N+](=O)[O-])c1O	OVCAR-8 ovarian	> 10 µM
C=C(C)[C@@H]1CC[C@]2(COCCCN)CC[C@]3(C)[C@H](CC[C@@H]4[C@@](C)(CCCNCCCN)[C@H](C(=C)C)CC[C@]43C)[C@@H]12	OVCAR-8 ovarian	3.61 µM
N#Cc1c(-c2ccc(Cl)cc2)c2c(n(C3OC(CO)C(O)C(O)C3O)c1=S)CCCC2 (stereo not given)	OVCAR-8 ovarian	> 100 µM
O=C(/C=C/c1ccccc1)Nc1ncc(Cc2ccccc2Cl)s1	OVCAR-8 ovarian	> 100 µM
CC(=O)C1C(c2ccccc2)C2(C)OC(=O)C(C#N)C12C (stereo not given)	OVCAR-8 ovarian	> 100 µM
Cc1ccc(S(=O)(=O)N=Nc2c(O)[nH]c3cc(O)c(C(=O)O)cc23)cc1	OVCAR-8 ovarian	> 100 µM
CCCOC(=O)N[C@H]1CCc2c(Cl)c(OC)c(OC)c(OC)c2-c2ccc(SC)c(=O)cc21	OVCAR-8 ovarian	> 100 µM
CS(=O)(=O)CCNCc1coc(-c2ccc3ncnc(Nc4ccc(OCc5ccccc5)cc4)c3c2)c1	OVCAR-8 ovarian	> 25 µM
CN(C)CCC(=O)N1C/C(=C\c2ccc(Cl)c(Cl)c2)C(=O)/C(=C/c2ccc(Cl)c(Cl)c2)C1	OVCAR-8 ovarian	0.752 µM
CCN1C(=O)c2ccc3c4c(ccc(c24)C1=O)C(=O)N(CCCNCc1ccccc1OC)C3=O	OVCAR-8 ovarian	2.87 µM
O=C1C=CC(=O)C2C1C1(Cl)C(Cl)=C(Cl)C2(Cl)C1(Cl)Cl (stereo not given)	OVCAR-8 ovarian	48.6 µM
Oc1ccc2ccccc2c1N=Nc1cccc2ccccc12	OVCAR-8 ovarian	> 100 µM
O=C1CS(=O)(=O)C(c2cccc(Oc3ccccc3)c2)N1c1ccc(Cl)cc1 (stereo not given)	OVCAR-8 ovarian	47.8 µM
N[C@@H]1CCN(c2c(F)cc3c(=O)c(C(=O)O)cn4c3c2Oc2c-4ccc3c2ccc2ccccc23)C1	OVCAR-8 ovarian	> 100 µM
O=C1COc2cc(NC(=S)Nc3ccccc3)ccc2N1	OVCAR-8 ovarian	> 100 µM
CCCCC1(NN=C2CCCCC2)C(=O)N(c2ccccc2)N(c2ccccc2)C1=O	OVCAR-8 ovarian	> 100 µM
